Known IC50 of a selection of compounds
Protein target, amino acids: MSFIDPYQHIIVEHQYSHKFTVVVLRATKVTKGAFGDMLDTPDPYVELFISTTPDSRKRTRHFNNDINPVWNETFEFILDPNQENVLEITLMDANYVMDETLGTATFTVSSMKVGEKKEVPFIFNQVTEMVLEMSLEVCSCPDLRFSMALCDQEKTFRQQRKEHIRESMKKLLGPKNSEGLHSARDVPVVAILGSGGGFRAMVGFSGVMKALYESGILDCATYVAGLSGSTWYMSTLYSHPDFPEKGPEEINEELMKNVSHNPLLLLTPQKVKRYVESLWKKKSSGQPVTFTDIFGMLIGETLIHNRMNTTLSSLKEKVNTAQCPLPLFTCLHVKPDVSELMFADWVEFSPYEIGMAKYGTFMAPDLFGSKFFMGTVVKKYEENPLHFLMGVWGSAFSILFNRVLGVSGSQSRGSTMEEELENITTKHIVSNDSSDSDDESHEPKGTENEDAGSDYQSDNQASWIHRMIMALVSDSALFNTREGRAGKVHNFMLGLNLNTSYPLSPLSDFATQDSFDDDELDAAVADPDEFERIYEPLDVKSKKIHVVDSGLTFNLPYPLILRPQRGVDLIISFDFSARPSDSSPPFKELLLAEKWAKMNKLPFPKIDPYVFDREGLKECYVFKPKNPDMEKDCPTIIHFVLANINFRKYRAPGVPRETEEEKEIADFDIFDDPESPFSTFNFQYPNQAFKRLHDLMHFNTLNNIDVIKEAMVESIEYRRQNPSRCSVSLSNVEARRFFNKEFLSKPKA
Units required after the number.

### Prompt Fill in reported IC50 for this entry: O=C(O)c1ccc(OCCc2c(CCNS(=O)(=O)Cc3c(F)cccc3C(F)(F)F)n(C(c3ccccc3)c3ccccc3)c3ccc(Cl)cc23)cc1 [Example 6]
### Response 92 nM

### Prompt Note IC50 for the compound shown: O=C(O)c1ccc(CCCc2c(CCNS(=O)(=O)Cc3ccccc3C(F)(F)F)n(C(c3ccccc3)c3ccccc3)c3ccc(Cl)cc23)cc1 [Example 10]
### Response 9 nM

### Prompt Supply recorded IC50 for O=C(O)c1ccc(CCCc2c(CCNS(=O)(=O)Cc3ccccc3F)n(C(c3ccccc3)c3ccccc3)c3ccc(Cl)cc23)cc1 [Example 28] here.
### Response 30 nM

* * *

- SYSTEM_TESTED: cPLA2α (Homo sapiens, UniProt P47712)
This listing pairs compounds with measured IC50.
Return type: number; implicit unit nM.

1) O=Cc1ccccc1CS(=O)(=O)NCCc1c(CCCc2ccc(C(=O)O)cc2)c2cc(Cl)ccc2n1C(c1ccccc1)c1ccccc1 = 23
2) Cc1c(Cl)ccc(F)c1CS(=O)(=O)NCCc1c(CCCc2ccc(C(=O)O)cc2)c2cc(Cl)ccc2n1C(c1ccccc1)c1ccccc1 = 22

Then this compound:
### Prompt State measured IC50 of the compound O=C(O)c1ccc(CCCc2c(CCNS(=O)(=O)Cc3ccccc3O)n(C(c3ccccc3)c3ccccc3)c3ccc(Cl)cc23)cc1 with cPLA2α (Homo sapiens, UniProt P47712).
### Response 72

* * *

Items are presented alongside their recorded IC50.
- Test system: TXB2
- MEASUREMENT_NOTES: Rat Whole Blood Assay (A23187-stimulated TXB2)
- Assay type: cell-based
- CONDITION: Rattus norvegicus; A23187 5 μM
Report only the number, with the unit nM understood.

For orientation, consider the following solved cases.
1. O=C(O)c1ccc(CCCc2c(CCNS(=O)(=O)Cc3ccccc3CN3CCOCC3)n(C(c3ccccc3)c3ccccc3)c3ccc(Cl)cc23)cc1 = 20
2. CN(C)c1ccc(-c2ccccc2CS(=O)(=O)NCCc2c(CCCc3ccc(C(=O)O)cc3)c3cc(Cl)ccc3n2C(c2ccccc2)c2ccccc2)cc1 = 50
3. O=C(O)c1ccc(OCCc2c(CCNS(=O)(=O)Cc3ccccc3O)n(C(c3ccccc3)c3ccccc3)c3ccc(Cl)cc23)cc1 = 120
4. O=C(O)c1ccc(CCCc2c(CCNS(=O)(=O)Cc3ccccc3O)n(C(c3ccccc3)c3ccccc3)c3ccc(Cl)cc23)cc1 = 60
5. O=C(O)c1ccc(CCCc2c(CCNS(=O)(=O)Cc3c(C(F)(F)F)cccc3C(F)(F)F)n(C(c3ccccc3)c3ccccc3)c3ccc(Cl)cc23)cc1 = 40

### Prompt State measured IC50 of the compound O=C(O)c1ccc(CCCc2c(CCNS(=O)(=O)CCc3ccccc3C(F)(F)F)n(C(c3ccccc3)c3ccccc3)c3ccc(Cl)cc23)cc1 with TXB2.
### Response 120

### Prompt Enter recorded IC50 with TXB2 for O=C(O)c1ccc(OCCc2c(CCNS(=O)(=O)Cc3ccccc3C(F)(F)F)n(C(c3ccccc3)c3ccccc3)c3ccc(Cl)cc23)cc1 here.
### Response 20

### Prompt # lookup: TXB2 IC50, key = O=C(O)c1ccc(CCCc2c(CCNS(=O)(=O)Cc3c([N+](=O)[O-])cccc3C(F)(F)F)n(C(c3ccccc3)c3ccccc3)c3ccc(Cl)cc23)cc1
### Response 30

### Prompt Report its IC50 with TXB2 as the test system: O=Cc1ccccc1CS(=O)(=O)NCCc1c(CCCc2ccc(C(=O)O)cc2)c2cc(Cl)ccc2n1C(c1ccccc1)c1ccccc1
### Response 50

### Prompt Look up and report IC50, with TXB2 as system, for O=C(O)c1ccc(CCCc2c(CCNS(=O)(=O)Cc3ccccc3-c3ccncc3)n(C(c3ccccc3)c3ccccc3)c3ccc(Cl)cc23)cc1
### Response 60

### Prompt For TXB2, give IC50 of the listed compound: O=C(O)c1ccc(CCCc2c(CCNS(=O)(=O)Cc3ccccc3F)n(C(c3ccccc3)c3ccccc3)c3ccc(Cl)cc23)cc1
### Response 30

### Prompt Please report IC50 with TXB2 for item O=C(O)c1ccc(OCCc2c(CCNS(=O)(=O)Cc3ccccc3OCc3ccccc3)n(C(c3ccccc3)c3ccccc3)c3ccc(Cl)cc23)cc1 .
### Response 140

### Prompt Determine reported IC50 for CC(c1ccccc1C(F)(F)F)S(=O)(=O)NCCc1c(CCCc2ccc(C(=O)O)cc2)c2cc(Cl)ccc2n1C(c1ccccc1)c1ccccc1 (stereo not drawn) ; test system: TXB2.
### Response 40
